Assay: Vero cell toxicity, dose response, cytotoxicity control, plate reader, cherry-pick samples (AID 687020);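 also: compounds incubated with cells for three days before luminescence read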
Details: Vero cells toxicity; series mostly up to 19.5 µM
The campaign covered roughly 1,400 compounds. About 100 (7.1%) were called active. Only a sample is shown. Entries with a potency or affinity are not part of this list.
readout name: outcome

- compound: "CC(C)(C)c1ccc(C(=O)Nc2ccc3c(c2)C(=O)NC3=O)cc1"
  data value: "inactive"
- compound: "C[C@H](NC(=O)[C@H]1[C@H](CO)[C@H]2Cn3c(cccc3=O)[C@@H]1N2Cc1cccnc1)c1ccccc1"
  data value: "inactive"
- compound: "COc1ccc(C(C(=O)NCc2ccccc2)n2c(-c3ccncc3)nc3ccccc32)cc1 (stereo not given)"
  data value: "inactive"
- compound: "COc1ccccc1CCNS(=O)(=O)CCNC(=O)c1ccc2c(c1)OCO2"
  data value: "inactive"
- compound: "COCCNC(=O)C1CCC(CNS(=O)(=O)c2ccc(F)cc2)CC1 (stereo not given)"
  data value: "inactive"
- compound: "CN(CC(=O)Nc1ccccc1C(=O)NC1CC1)Cc1ccccc1F"
  data value: "inactive"
- compound: "CC(=O)Nc1ccc(OCCCN2CCC(C(O)(c3ccccc3)c3ccccc3)CC2)cc1"
  data value: "inactive"
- compound: "C=CCOc1ccc(CNCc2cccnc2)cc1OCC"
  data value: "inactive"
- compound: "C[C@@H]1CN([C@H](C)CO)C(=O)c2cc(NC(=O)c3ccncc3)ccc2O[C@@H](C)CCCCO[C@H]1CN(C)C"
  data value: "inactive"
- compound: "Cc1c(C)c2cc(Cl)c(OCC(=O)NCCCN3CCCC3=O)cc2oc1=O"
  data value: "inactive"
